Assay: NCI Yeast Anticancer Drug Screen. Data for the rad50 strain (AID 155);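 note: 0% = growth of vehicle-only cultures of the same strain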
Conditions: S. cerevisiae rad50 strain growth inhibition; at 50.0 µM (retest, dose inferred, filed as 5.0); active compounds read high
About 79,000 compounds went through this panel and 15% of them were active in at least one assay; those are over-represented in the sample as a whole. Calls of active or inactive are those of the source. Cut-off read from the data, not from the text of the source: active = growth inhibition above about 70%; inactive = the rest.
metric: growth inhibition

# compound, recorded result
rows = [
    ("Nc1ccc2c(ccc3ccc4ccccc4c32)c1", "93% (active)"),
    ("Cc1c(C)c(CCl)c(C)c(C)c1CCl", "95% (active)"),
    ("CCCCCCCCCCCCCC1=NCC(c2ccc3ccccc3c2)O1 (stereo not given)", "-13% (inactive)"),
    ("C/C(N=NC(=S)N1CCCCCC1)=C1\\C=CC=CN1O", "38% (inactive)"),
    ("COc1nc(NC2OC(CO)C(O)C(O)C2O)c(Cl)c(=O)n1C (stereo not given)", "5% (inactive)"),
    ("CC(NC(=O)C(N)Cc1ccccc1)C(=O)NC1C(CO)OC(n2cnc3c(N)ncnc32)C1O (stereo not given)", "-1% (inactive)"),
    ("O=Nc1ccc(C=C2C(=O)C=CC2=O)cc1", "98% (active)"),
    ("O=C(NCCCCCCNC(=O)n1cc(F)c(=O)[nH]c1=O)NCCCOCCOCCOCCOCCOCCOCCOCCOCCOCCOCCOCCOCCOCCOCCOCCOCCOCCOCCOCCOCCOCCCNC(=O)C(O)C(O)C(OC1OC(CO)C(O)C(O)C1O)C(O)CO (stereo not given)", "95% (active)"),
    ("[N-]=[N+]=CC(=O)OCC1NC(=O)C(COC(=O)C=[N+]=[N-])NC1=O (stereo not given)", "-1% (inactive)"),
    ("Nc1ncnc2c1ncn2C1SC(CO)C(O)C1O (stereo not given)", "8% (inactive)"),
    ("CC(=O)NC1CCC(C2CCCCC2)CC1C1CCCCC1 (stereo not given)", "85% (active)"),
    ("COc1c(O)cc2oc3cc(O)c(CC=C(C)C)c(O)c3c(=O)c2c1CC=C(C)C", "89% (active)"),
    ("COC1CC2CCC(C)[C@](O)(O2)C(=O)C(=O)N2CCCCC2C(=O)OC(C(C)CC2CCC(O)C(OC)C2)CC(=O)C(C)C=C(C)C(OC(=O)CN(C)C)C(OC)C(=O)C(C)CC(C)/C=C/C=C/C=C\\1C (stereo not given in full)", "97% (active)"),
    ("Cn1c2nc3ccccc3c-2cc2ccccc21", "85% (active)"),
    ("Nc1cc2c(cc1Cl)[nH]c(=O)c1cc(Cl)ccc12", "65% (inactive)"),
    ("CCc1cc2c(cc1C(C)=O)C(C)(C)CCC2", "95% (active)"),
    ("CC(=O)Nc1nc([N+](=O)[O-])c(C(C)C)s1", "1% (inactive)"),
    ("Cc1ccnc2c1c(=O)c1ccccc1n2C", "86% (active)"),
    ("COc1cc(O)c2c(c1)C(=O)c1cc3c(c(O)c1C2=O)C(OC1OC(C)C(OC)C(O)C1OC)C(OC)C(C)(O)C3=O (stereo not given)", "98% (active)"),
    ("O=C1/C(=C\\c2ccc([N+](=O)[O-])cc2)Sc2scc(-c3ccc(O)c(O)c3)[n+]21", "93% (active)"),
]
